Values from patent US20230105212A1

Please provide measured pIC50 for the entries that follow.
target: PD-L1 protein on the surface of MC38-hPDL1 tumor cells (Homo sapiens, UniProt Q9NZQ7); construct: expressed in transfected cells; host or cells: MC38-hPDL1 (mouse colon cancer cells); experiment: Induction of endocytosis of PD-L1 on the surface of tumor cells (flow cytometry); type: cell-based; settings: inducing endocytosis of PD-L1, MC38-hPDL1 cells, 16 hours incubation; read-out: MC38 IC50
Sequence (Q9NZQ7 19-290): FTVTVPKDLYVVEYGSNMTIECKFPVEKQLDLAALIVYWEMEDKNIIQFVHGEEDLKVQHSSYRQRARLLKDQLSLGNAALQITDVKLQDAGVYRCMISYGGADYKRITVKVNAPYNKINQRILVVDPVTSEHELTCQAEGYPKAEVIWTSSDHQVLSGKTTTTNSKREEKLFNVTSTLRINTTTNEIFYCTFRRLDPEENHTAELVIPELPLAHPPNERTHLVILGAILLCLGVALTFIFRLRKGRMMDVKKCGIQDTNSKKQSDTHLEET
One number for each entry, as −log10 of the molar value.

Below, each entry is followed by its recorded pIC50 result.
COc1cc(NCc2cnc(C(=O)Nc3cccc(-c4cccc(NC(=O)c5nc6c(n5C)CCN(CCO)C6)c4Cl)c3C)cc2OC)ccn1 : 8.19
COc1cc(C(=O)Nc2cccc(-c3cccc(NC(=O)c4nc5c(n4C)CCN(C)C5)c3Cl)c2C)ncc1CNCCNC(C)=O : 8.85
COc1nc(-c2cccc(-c3cccc(NC(=O)c4nc5c(n4C)CCN(C)C5)c3Cl)c2Cl)ccc1CN[C@@H]1CCCC[C@@H]1O : 8.92

Give measured pIC50 for every item shown.
1. COc1nc(-c2cccc(-c3cccc(NC(=O)c4nc5c(n4C)CCN(C)C5)c3Cl)c2Cl)ccc1CN1CC2(CCC(=O)N2)C1
2. COc1cc(C(=O)Nc2cccc(-c3cccc(NC(=O)c4nc5c(n4C)CCN(C)C5)c3Cl)c2C)ncc1CNCC1(F)CCOCC1
3. COc1cc(C(=O)Nc2cccc(-c3cccc(NC(=O)c4nc5c(n4C)CCN(C)C5)c3Cl)c2C)ncc1CO

[9.00, 8.15, 7.97]
